Test: Systemic pharmacokinetic parameters used in simulation exercise
Assay type: in vivo, rat
Conditions: rat, plasma; parameter used in simulation; read-out: Apparent volume of distribution, Vd
VALUE KIND: Vd (L)
Form entry: value (L) — number only.

>>> print(df.to_string())
                                  compound  value_kind  uom  value_reported
0  [O-][S@@+](Cc1cncs1)C(c1ccccc1)c1ccccc1          Vd    L           0.232

// switching to the query compound
## Input Recorded Vd of NC(=O)C[S@@+]([O-])C(c1ccccc1)c1ccccc1 [R-modafinil, reference compound] , please.
## Output 1.02
